Collected IC50 of pseudovirus infection (luciferase) values appear next to each entry.
- ASSAY SYSTEM: spike protein of SARS-CoV-2 γ strain on pseudovirus (SARS-CoV-2 (γ strain))
- ASSAY PROCEDURE: cell-based or functional assay
REPORTED ENDPOINT: IC50 of pseudovirus infection (luciferase) (ng/mL)

[[record]]
binder = "Ab816 (antibody, V domains shown) VH: QVQLVQSGAEVKKPGESLMISCKASGYNFRNYWIAWVRQMPGKGLEWMGIIHPGDSDIRYRPSLQGHVTISADKSITTAYLQWGSLKASDTAMYYCTRITTDADSSGLFHYWGQGTLVTVSS VL: EIVLTQSPSTLSASVGDRVTITCRASQNIYTWLAWYQRKPGKAPKVLIYKASSLESGVPSRFSGSGSGTEFTLTISSLQPDDFATYYCQQYKSAWSFGQGTKVEIK"
obs_value = 1.8

[[record]]
binder = "Ab803 (antibody, V domains shown) VH: EVQLVESGGGLVQPGRSLRVSCAASGFTFDDYAMHWVRQTPRKGLEWVAGISRNSAAIAYADSVKGRFTISRDNAKNSVFLQMNGLRADDTALYYCVKSPRYGWGSPDYSFDFWGRGTLVTVSS VL: DIQLTQSPSSLSASVGDRVTITCRASQNIGTYLNWYQQEPGKAPKLLIYAASSLQSGVPSRFSGSGSGTDFTLTISSLQPEDFATYCCQQSFTTPLTFGQGTKVEIK"
obs_value = 10.6

[[record]]
binder = "Ab712 (antibody, V domains shown) VH: QVQLVQSGSELKKPGASVKISCKASGYTFINHAINWVRQAPGQGLEWMGWINTNTGNPTYAPGFTGRFVFSLDTSVSTAYLQISSLKAEDTAVYYCARIPIRDYDYDGSGYYYFLDYWGQGTLVTVSS VL: SYELTQDPAVSVALGQTVRITCQGDSLRSSSASWYQQKPGQAPVLVIYGKTNRPSGIPDRFSGSSSGNTASLTITGAQAEDEADYYCNSRDNSGNHPVVFGGGTKLTVL"
obs_value = 2.2

[[record]]
binder = "Ab765 (antibody, V domains shown) VH: QVQLVESGGGVVQPGRSLRLSCAASGFTFSDYAIHWVRQAPGRGLEPVALISYDGNNKYYADSVKGRFTISRDNSKNVLYLQMNSLRADDTAVYYCARDAEGGWVAALDYWGQGTLVTVSS VL: QSALTQPRSVSGSPGQSVTISCTGTSSDVGGYNYVSWYQHHPGKAPKVMIYEVSKRPSGVPDRFSGSKSGTTASLTISGLQAEDEADYYCCSYAGTYPYVFGTGTKVTVL"
obs_value = 14.4

